Biological target: human folate receptor alpha (hFOLR1) on cells (human, UniProt P15328 25-234)
Sequence (P15328 25-234 limits assumed): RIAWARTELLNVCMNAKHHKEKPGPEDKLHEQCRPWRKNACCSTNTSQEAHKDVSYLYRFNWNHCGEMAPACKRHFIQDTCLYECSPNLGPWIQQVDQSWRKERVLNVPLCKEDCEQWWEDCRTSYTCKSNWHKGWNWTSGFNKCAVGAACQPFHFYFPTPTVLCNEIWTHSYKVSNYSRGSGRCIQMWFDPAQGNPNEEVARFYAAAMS
Test: cell-based or functional assay
measure name: Igrov 2° Antibody Cell Killing, Nb-SC239, span (%)

{"binder": "SRP2060-B01 (antibody, V domains shown) VH: EVQLLESGGGLVQPGGSLRLSCALSGFSLSTFGMGVGWVRQATGKGLEWVSHIWWDDDKYYHPALKGRFTISKDNSKNTVHLQMNSLRAEDTAVYYCGRNHFPHYYGSSHWYFNVWGQGTTVTVSS VL: DIQMTQSPSTLSASVGDRVTITCKASQDINSYLSWYQQKPGKAPKLLIYRANRLVDGVPSRFSGSGSGTEFTLTISSLQPDDFATYYCLQYDEFPYTFGGGTKVEIK", "recorded number": 76}
